Measured pIC50, listed per entry.
- TGT: AcerOBP6 (Apis cerana cerana, UniProt A0A2A3ES84)
- Sequence (A0A2A3ES84 entry or part of it): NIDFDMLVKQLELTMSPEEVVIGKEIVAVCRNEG
- Format: binding
- APPLIED CONDITIONS: concentration of ligand displacing 50% 1-NPN; AcerOBP6 1 µM, 1-NPN 1 µM, ligand 1-10 µM; short dash: not possible to calculate the IC50 value
pIC50: −log10 of the molar value.

Solved cases (3 shown):
INSERT INTO measurements (compound, tgt, metric_name, obs_value) VALUES
  ('CCCCCCCCCCCCCCCC(=O)OC [Methyl palmitate]', 'AcerOBP6 (Apis cerana cerana, UniProt A0A2A3ES84)', 'pIC50', '< 5.00'),
  ('C/C1=C\CC/C(C)=C/CC(C)(C)/C=C/C1', 'AcerOBP6 (Apis cerana cerana, UniProt A0A2A3ES84)', 'pIC50', '< 5.00'),
  ('CC/C=C\C/C=C\C/C=C\CCCCCCCC(=O)OCC', 'AcerOBP6 (Apis cerana cerana, UniProt A0A2A3ES84)', 'pIC50', '< 5.00');

# evaluate next
Tell me pIC50 reported for CCOC(=O)/C=C/c1ccccc1 [Ethyl-trans-cinnamate] 5.41

* * *

- TGT: AcerOBP6 (Apis cerana cerana, UniProt A0A2A3ES84)
- Assay type: binding
- APPLIED CONDITIONS: Ki = [IC50]/(1 + [1-NPN]/K1-NPN); AcerOBP6 1 µM, 1-NPN 1 µM; listed as ethyl-trans-cinnamate; read-out: Ki (dissociation constant)
METRIC NAME: pKi
To interpret pKi, take it as minus log10 of a concentration measured in moles per litre.

Tell me pKi reported for CCOC(=O)/C=C/c1ccccc1 [Ethyl-trans-cinnamate] 5.43
